- tgt: T1, muNav1.7α (murine, UniProt Q62205 1-1984)
- T1 construct: HEK JmpIn cells; also called murine Nav1.7α
- experimentSummary: binding FACS, HEK JmpIn
metricName: Bmax (%)
Supply the numeric figure in %, leaving out any unit text.

| binder | Bmax (%) |
| --- | --- |
| F0103464B09 (parental)-FLAG-HIS6 (VHH, also called F010346B09) VHH: EVQLVESGGGLVQPGGSLRLSCATTSRAFIRDVFTGWYRRVPGKERELVARIYNGGNTNYADFAKGRFSISRDNAKKMVTLRMSNLKPEDTGVYYCLFSGTINTGREYRSGDYWGQGTLVTVSS | 74 |

Now consider the entry below.
Which Bmax value is on record for F010302355 (VHH) VHH: EVQLVESGGGVVQPGGSLRLSCAASHRAFIRDVFTGWYRRAPGKQRELVARIYEGGNTQYADSVKGRFTISRDNAKKTVYLQMNSLRPEDTALYYCLFSGTISTGREYRSGDYWGQGTLVTVSS ?
30
